Experiment: Example 7: food effect on pharmacokinetics of Compound 1 in healthy Japanese males
Format: in vivo
Conditions: male, human, plasma, po, 400 mg, Fed, single oral dose 400 mg; Mean ± SD (n = 6)
RECORDED_ENDPOINT: AUC(0-inf) (ng·h/mL)
// units = ng·h/mL; emit number, no label

What AUC(0-inf) value was documented for this compound, COc1cc2c(cc1Cc1cccc(Cl)c1F)c(=O)c(C(=O)O)cn2[C@H](CO)C(C)C ?
3940

----------
Experiment: Example 1: pharmacokinetics of Compound 1 alone and with RTV in healthy subjects
Assay type: in vivo, human
Conditions: both sexes, human, plasma, oral, 100 mg, ritonavir in plasma; Day 11, single dose RTV 100 mg with Compound 1; median
RECORDED_ENDPOINT: half-life (h)
// units = h; emit number, no label

What half-life value was documented for this compound, CC(C)c1nc(CN(C)C(=O)N[C@H](C(=O)N[C@@H](Cc2ccccc2)C[C@H](O)[C@H](Cc2ccccc2)NC(=O)OCc2cncs2)C(C)C)cs1 [Ritonavir, reference compound] ?
5.1
